biological target: HLA-A*3301 (human); test: competition with 125I-labelled standard peptide on purified HLA, gel filtration; details: remark: other sources report otherwise
Collected binding affinity ratio (IC50 of standard peptide / IC50 of test peptide) values appear next to each entry.
Lab note: record just the number, no unit beside it.

BINDER | EXPERIMENTAL_VALUE
TLWKAGILYKR (modifications not checked) [HBV POL 150 11-mer peptide … (SEQ ID NO: 666)] | 0.11
TAELLAACFAR (modifications not checked) [HBV POL 716 11-mer peptide … (SEQ ID NO: 661)] | 0.16
TSAICSVVR (modifications not checked) [HBV POL 519 9-mer peptide … (SEQ ID NO: 667)] | 0.02

Now let's try a different one.
Inquiry: Which binding affinity ratio (IC50 of standard peptide / IC50 of test peptide) is reported for this binder? SAICSVVR (modifications not checked) [HBV POL 520 8-mer peptide SAICSVVR (SEQ ID NO: 652)]
Reply text: 0.0081

All values here come from patent US20070059799A1.
